# experimentalSystem: TLR7 (Homo sapiens)
# Construct: Human peripheral blood mononuclear cells (PBMCs) consist of lymphocytes, monocytes and dendritic cells that express TLR7, TLR8 and TLR9; endogenous in cells
# Sequence (Q9NYK1 27-1049): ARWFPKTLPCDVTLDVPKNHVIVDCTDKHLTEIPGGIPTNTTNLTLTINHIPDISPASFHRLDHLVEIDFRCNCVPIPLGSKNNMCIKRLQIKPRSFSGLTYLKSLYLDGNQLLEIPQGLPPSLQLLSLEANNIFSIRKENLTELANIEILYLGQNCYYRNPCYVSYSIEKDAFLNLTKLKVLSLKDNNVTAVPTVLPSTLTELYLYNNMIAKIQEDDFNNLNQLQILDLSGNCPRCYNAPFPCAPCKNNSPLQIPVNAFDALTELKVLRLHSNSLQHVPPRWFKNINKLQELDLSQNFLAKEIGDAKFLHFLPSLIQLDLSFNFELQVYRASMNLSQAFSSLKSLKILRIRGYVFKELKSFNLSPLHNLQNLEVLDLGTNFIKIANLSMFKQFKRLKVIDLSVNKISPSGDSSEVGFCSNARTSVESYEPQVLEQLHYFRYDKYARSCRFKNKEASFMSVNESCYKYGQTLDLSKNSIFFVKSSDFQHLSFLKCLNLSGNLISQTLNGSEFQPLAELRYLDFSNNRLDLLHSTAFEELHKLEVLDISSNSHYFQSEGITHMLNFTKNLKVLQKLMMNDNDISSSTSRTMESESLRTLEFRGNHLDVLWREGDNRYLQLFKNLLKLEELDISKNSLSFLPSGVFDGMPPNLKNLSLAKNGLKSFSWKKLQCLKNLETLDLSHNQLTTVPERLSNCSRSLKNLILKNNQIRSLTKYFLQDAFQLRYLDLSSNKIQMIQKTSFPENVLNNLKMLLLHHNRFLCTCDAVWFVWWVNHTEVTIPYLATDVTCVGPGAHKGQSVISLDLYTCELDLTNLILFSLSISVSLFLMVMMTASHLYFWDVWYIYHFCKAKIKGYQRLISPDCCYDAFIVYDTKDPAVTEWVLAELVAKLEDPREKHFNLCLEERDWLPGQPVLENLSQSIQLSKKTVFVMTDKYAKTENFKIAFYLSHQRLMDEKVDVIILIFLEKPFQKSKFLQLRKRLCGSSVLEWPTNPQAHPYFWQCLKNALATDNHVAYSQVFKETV
# experimentalDetails: TLR7 human PBMC cell-based assay (antagonist, GS-986 stimulated cytokine release)
# conditionContext: human PBMCs; TLR7 agonist GS-986 400 nM, 6 hours; cytokines (IL-6 and IFNα) in supernatant; read-out: TLR-7 EC50
Exercise: for every item that follows, state its recorded pEC50.
One number for each entry, as −log10 of the molar value.

Check out these entries, answers already filled in.
compound | experimentalSystem | observedProperty | resultValue
Cc1nn(C2CCNCC2)cc1-c1cc2[nH]c(-c3cc(C)c4ncnn4c3)c(C(C)C)c2s1 [Example 220] | TLR7 (Homo sapiens) | pEC50 | 8.92
Cc1cc(-c2[nH]c3cc(C(=O)N4CCC[C@H]5NCCC[C@H]54)sc3c2C(C)C)cn2ncnc12 [Example 110] | TLR7 (Homo sapiens) | pEC50 | 10.00
Cc1cc(-c2[nH]c3cc(C(=O)N4CCC[C@H](N)[C@@H]4C)sc3c2C(C)C)cn2ncnc12 [Example 87] | TLR7 (Homo sapiens) | pEC50 | 9.30

Answer for every listed entry: what is its pEC50? The entries follow.
1. Cc1cc(-c2[nH]c3cc(C(=O)N4CCC[C@@H]4CN(C)C)sc3c2C(C)C)cn2ncnc12 [Example 104]
2. Cc1cc(-c2[nH]c3cc(-c4cnn(C5CCNCC5)c4)sc3c2C(C)C)cn2ncnc12 [Example 215]
3. Cc1cc(-c2[nH]c3cc(C(=O)N4CCC[C@H]5NCC[C@H]54)sc3c2C(C)C)cn2ncnc12 [Example 108]
4. Cc1cc(-c2[nH]c3cc(C(=O)N4CCC[C@H]4CN(C)C)sc3c2C(C)C)cn2ncnc12 [Example 103]
5. Cc1cc(-c2[nH]c3cc(C(=O)N4C[C@H](N)[C@@H]5CC[C@H]4C5)sc3c2C(C)C)cn2ncnc12 [Example 91]
6. Cc1cc(-c2[nH]c3cc(-c4cnc5c(c4)CN(CCO)CC5)sc3c2C(C)C)cn2ncnc12 [Example 190]

Solution:
8.11
9.52
9.22
7.95
8.52
8.62
